TESTED_TARGET: T1, recombinant mouse DLL4 (C-terminally His-tagged extracellular domain, R&D Systems) (mouse, UniProt Q9JI71 27-532)
T1 construct: extracellular domain; also called rmDLL4; mDLL4
T1 sequence (Q9JI71 27-532): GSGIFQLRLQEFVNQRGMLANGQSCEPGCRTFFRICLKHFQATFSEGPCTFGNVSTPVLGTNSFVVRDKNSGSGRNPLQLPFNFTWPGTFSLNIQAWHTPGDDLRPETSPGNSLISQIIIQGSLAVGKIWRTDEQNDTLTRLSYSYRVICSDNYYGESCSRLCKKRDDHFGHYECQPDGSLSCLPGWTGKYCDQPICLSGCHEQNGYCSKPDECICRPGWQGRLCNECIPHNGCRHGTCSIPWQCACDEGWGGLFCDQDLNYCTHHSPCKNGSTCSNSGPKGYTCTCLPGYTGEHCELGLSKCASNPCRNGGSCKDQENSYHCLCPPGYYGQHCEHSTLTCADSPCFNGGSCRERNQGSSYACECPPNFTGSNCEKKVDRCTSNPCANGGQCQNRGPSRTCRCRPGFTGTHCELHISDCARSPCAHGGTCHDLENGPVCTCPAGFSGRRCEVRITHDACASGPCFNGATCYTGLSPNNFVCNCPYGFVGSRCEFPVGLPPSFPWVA
EXPERIMENT_DESCRIPTION: ProteOn off-rate screen, periplasmic extract, coated mouse DLL4
Exercise: state measured fold (off-rate vs DLLBII101G08) for each of the binders provided.
Answer format: numeric, fold implied, no suffix.

Would you mind telling me what fold (off-rate vs DLLBII101G08) value was observed for DLLBII129A03 (VHH, not shown: small tags and cut ends) VHH: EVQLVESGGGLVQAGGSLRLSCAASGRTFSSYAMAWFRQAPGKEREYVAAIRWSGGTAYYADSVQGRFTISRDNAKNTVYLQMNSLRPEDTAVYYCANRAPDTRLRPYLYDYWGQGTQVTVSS ? 18

Which fold (off-rate vs DLLBII101G08) is reported for this binder? DLLBII129B02 (VHH) VHH: EVQLVESGGGLVQAGGSLSLSCAASGRTFSSYAMAWYRQAPGKEREYVAAIRWSGGTAYYADSVQGRFTISRDNAKNTVYLQMNSLKPEDTAVYYCANRAPDTRLEPYEYDHWGQGTQVTVSS 26
